Values compiled from patent US20140348819A1.

Test system: six V600E BRAF melanoma cell lines
Assay: Screening of recombinant RTK ligands for ability to confer resistance to BRAFi (PLX4720) or MEKi (PD184352) (Table 4)
Type: cell-based, human
Parameters: scale not given here
Details: Colo 829, PLX4720 - 2 uM, ligand 6.25 ng/ml
readout.label: ability of recombinant RTK ligand to confer resistance

[[record]]
molecule = "Ephrin-A4 (protein, UniProt P52798 26-170, looked up) Ephrin-A4: LRHVVYWNSSNPRLLRGDAVVELGLNDYLDIVCPHYEGPGPPEGPETFALYMVDWPGYESCQAEGPRAYKRWVCSLPFGHVQFSEKIQRFTPFSLGFEFLPGETYYYISVPTPESSGQCLRLQVSVCCKERKSESAHPVGSPGES"
numeric_result = 1.19

[[record]]
molecule = "flt-3 ligand (FL) (protein, UniProt P49771 27-235, looked up) Fms-related tyrosine kinase 3 …: TQDCSFQHSPISSDFAVKIRELSDYLLQDYPVTVASNLQDEELCGGLWRLVLAQRWMERLKTVAGSKMQGLLERVNTEIHFVTKCAFQPPPSCLRFVQTNISRLLQETSEQLVALKPWITRQNFSRCLELQCQPDSSTLPPPWSPRPLEATAPTAPQPPLLLLLLLPVGLLLLAAAWCLHWQRTRRRTPRPGEQVPPVPSPQDLLLVEH"
numeric_result = 1.00

[[record]]
molecule = "VEGF-C (protein, UniProt P49767 112-227, looked up) Vascular endothelial growth …: AHYNTEILKSIDNEWRKTQCMPREVCIDVGKEFGVATNTFFKPPCVSVYRCGGCCNSEGLQCMNTSTSYLSKTLFEITVPLSQGPKPVTISFANHTSCRCMSKLDVYRQVHSIIRR"
numeric_result = 1.00

[[record]]
molecule = "BDNF (protein, UniProt P23560 19-247, looked up) Neurotrophic factor BDNF …: APMKEANIRGQGGLAYPGVRTHGTLESVNGPKAGSRGLTSLADTFEHVIEELLDEDQKVRPNEENNKDADLYTSRVMLSSQVPLEPPLLFLLEEYKNYLDAANMSMRVRRHSDPARRGELSVCDSISEWVTAADKKTAVDMSGGTVTVLEKVPVSKGQLKQYFYETKCNPMGYTKEGCRGIDKRHWNSQCRTTQSYVRALTMDSKKRIGWRFIRIDTSCVCTLTIKRGR"
numeric_result = 0.96

[[record]]
molecule = "GDNF (protein, UniProt P39905 78-211, looked up) Glial cell line-derived …: SPDKQMAVLPRRERNRQAAAANPENSRGKGRRGQRGKNRGCVLTAIHLNVTDLGLGYETKEELIFRYCSGSCDAAETTYDKILKNLSRNRRLVSDKVGQACCRPIAFDDDLSFLDDNLVYHILRKHSAKRCGCI"
numeric_result = 0.96

